tested on: KM12 colon; assay: NCI tumour cell line growth inhibition, 48 h

{"columns": ["molecule", "TGI"],
 "data": [
  ["CCOC(=O)c1nc2ccccc2nc1Nc1ccc(F)cc1", "> 100 µM"],
  ["O=C(O)c1ccc2c(c1)Cc1cc([N+](=O)[O-])ccc1-2", "> 100 µM"],
  ["c1ccc(Cc2nc3ccc(Nc4ncnc5ccccc45)cc3[nH]2)cc1", "> 25 µM"],
  ["c1cc2c3c(c1)[C@@H]1O[C@@H]1c1cccc(c1-3)[C@@H]1O[C@H]21", "44 µM"],
  ["COc1ccc(OC)c(-c2cn3c(n2)sc2ccccc23)c1", "> 100 µM"],
  ["Cc1ccc(Cl)c2c(=O)cc(-c3ccccc3)[nH]c12", "> 100 µM"],
  ["OC1(C(O)(c2ccc(-c3ccccc3)cc2)c2ccc(-c3ccccc3)cc2)CCCCC1", "> 100 µM"],
  ["CCn1c(O)c(C(=O)NC(C)c2ccc([N+](=O)[O-])cc2)c(=O)n(CC)c1=S (configuration not stated)", "5.58 µM"],
  ["O=C1c2ccccc2C2(c3ccc(Cl)cc3)N[C@@H]3CCCC[C@@H]3N12 (some centres not stated)", "> 100 µM"],
  ["Cc1cn(C2CC(F)C(CO)O2)c(=O)[nH]c1=O (configuration not stated)", "> 100 µM"],
  ["O=c1[nH]nc(N/N=C\\c2ccc(Cl)cc2)c2ccccc12", "52.3 µM"],
  ["CCOC(=O)CC(=O)Sc1ccccc1", "> 100 µM"],
  ["c1ccc2c(c1)ccc1nc(-c3ccc4c(c3)OCO4)c3c(c12)CCC3", "> 100 µM"],
  ["CCn1c(SCc2nnc(Nc3ccccc3)s2)nc2ccccc2c1=O", "> 48.9 µM"],
  ["CC(C)N(C(=O)C12C3C4C5(C#N)C3C1(I)C5C42I)C(C)C (configuration not stated)", "> 100 µM"],
  ["NNc1nnc(-c2ccccc2)nc1Cc1ccccc1", "> 100 µM"],
  ["COc1cccc(OC/C(N=Cc2ccncc2)=N/NC(=O)c2ccncc2)c1", "> 100 µM"],
  ["CC1=C([Se]CC(OC(=O)CC[Se]c2ccccc2)C(=O)NCCCCCC(=O)OCc2ccccc2)C(=O)c2ccccc2C1=O (configuration not stated)", "5.45 µM"],
  ["Cc1cccc(-c2nc3c(C(=O)NCCN(C)C)cccc3[nH]2)c1", "4 µM"],
  ["CCCN(CCCCC(NC(C)=O)C(=O)NCc1ccccc1)C(=O)NCCCl (configuration not stated)", "> 100 µM"],
  ["Cc1c(N=Nc2ccc([N+](=O)[O-])cc2)nc2scc(-c3ccccc3)n12", "> 100 µM"],
  ["O=C1/C(=C/c2cccs2)N=C(c2ccccc2)N1c1nc2ccccc2s1", "> 100 µM"],
  ["CC(=O)c1cc(S(=O)(=O)c2ccc(O)c(C(C)=O)c2)ccc1O", "> 100 µM"],
  ["Cc1ccc(S(=O)(=O)CC2CCCn3c2c(C#N)c2ccccc23)cc1 (configuration not stated)", "> 100 µM"],
  ["O=Cc1c(-c2cc(O)ccc2O)nc2sccn12", "20.5 µM"],
  ["NC(=O)CC[C@H]1C(=O)N=C(N)N1C(=O)OCc1ccccc1", "> 100 µM"],
  ["Cn1cnc(/C=C/C#N)c1", "> 100 µM"],
  ["Cc1cc(C)c(C#N)c(SC(=S)NC(=O)c2ccccc2)n1", "> 100 µM"],
  ["Clc1ccc(-n2nnc(C3=NCCN3)c2-c2ccccc2)cc1", "> 100 µM"],
  ["C/C(=C\\COP(=O)(O)OP(=O)(O)O)CC/C=C(\\C)CNc1ccccc1", "> 50 µM"],
  ["Cc1cn(C2CC(SCCO)C(CO)O2)c(=O)[nH]c1=O (configuration not stated)", "> 100 µM"],
  ["Cc1cc(=O)[nH]c(NN2C(Cl)C(=O)C2c2ccco2)n1 (configuration not stated)", "> 100 µM"]
]}

* * *

system: OVCAR-3 ovarian; assay: NCI tumour cell line growth inhibition, 48 h
Parameter: TGI. Scope: all listed entries.

{"columns": ["compound", "TGI"],
 "data": [
  ["COc1ccc(-n2c(SCc3cc(OC)c(OC)c(OC)c3)nc3ccc(C)cc3c2=O)c(OC)c1", "7.04 µM"],
  ["CCN1C2=NC(=O)N(C)C(=O)C2(Cl)C(C(SC)S(=O)(=O)c2ccc(C)cc2)c2ccccc21 (stereo unspecified)", "80.2 µM"],
  ["CCOC(=O)NC(OCc1ccccc1)(C(=O)OC)C(F)(F)F (stereo unspecified)", "> 100 µM"],
  ["CC1OC(n2ncc(=O)[nH]c2=O)C=CC1=O (stereo unspecified)", "> 100 µM"],
  ["CCCOC1OC(CS(=O)(=O)O)C(OC(C)=O)C(OC(C)=O)C1OC(C)=O (stereo unspecified)", "> 100 µM"],
  ["Cn1cnc(/C=C/C#N)c1", "> 100 µM"],
  ["Clc1ccc(Cc2nc3ccccc3nc2-c2cccc(Cl)c2)cc1", "17.4 µM"],
  ["O=C1CCC(Cc2ccc(Cl)cc2Cl)C(=O)N1 (stereo unspecified)", "> 100 µM"],
  ["Cc1cccc(-c2nc3c(C(=O)NCCN(C)C)cccc3[nH]2)c1", "6.55 µM"],
  ["CCCCn1c2cc(OCc3cn(-c4ccc(Cl)cc4)nn3)ccc2c2ccnc(C)c21", "18.2 µM"],
  ["O=C(O)Cn1ncn(NC(=O)Cc2ccccc2)c1=S", "> 10 µM"],
  ["COc1ccc(C[C@H]2COC(=O)[C@@H]2Cc2ccccc2)cc1OC", "> 100 µM"],
  ["Cc1cccc(=O)c([O-])c1.Cc1cccc(=O)c([O-])c1.Cc1cccc(=O)c([O-])c1.Cc1cccc(=O)c([O-])c1.[Th+4]", "> 22 µM"],
  ["COc1ccc(C2C3=CONC3CC3CCCCC32)cc1 (stereo unspecified)", "> 100 µM"],
  ["COc1cc(Nc2nc3cc(N)cc(N)c3nc2-c2ccccc2)cc(OC)c1", "20.1 µM"],
  ["CC(=O)NCC1OC2COC(c3ccccc3)OC2C2N=C(c3ccccc3)OC12 (stereo unspecified)", "> 100 µM"],
  ["O=C1NC(=S)NC(=O)C1=Cc1cc2c(cc1[N+](=O)[O-])OCO2", "> 100 µM"],
  ["Cc1cc(=O)[nH]c(NN2C(Cl)C(=O)C2c2ccco2)n1 (stereo unspecified)", "79.4 µM"],
  ["O=C1/C(=C(/Br)I)c2ccccc2-c2ccccc21", "24.6 µM"],
  ["COP(=O)(OC)C(NC(c1ccccc1)c1ccccc1)c1ccc2c(c1)OCO2 (stereo unspecified)", "50.2 µM"],
  ["O=C(/C=C/c1cccnc1)NCCCCC1CCN(C(=O)c2ccccc2)CC1", "> 100 µM"],
  ["COc1ccc(/C=C/C(=O)c2cc3c(N)c(C(=O)Nc4ccccc4Cl)sc3nc2C)cc1", "16.3 µM"],
  ["CC(C)(C)C(=O)O[C@H]1C=C[C@@H](O)[C@@H]2[C@H]1[C@@H]1C=C[C@H]2C1", "> 100 µM"],
  ["Cc1ccc(S(=O)(=O)CC2CCCn3c2c(C#N)c2ccccc23)cc1 (stereo unspecified)", "> 100 µM"],
  ["CC(=O)Nc1nc(C)c(S(=O)(=O)NC(=O)N2c3ccccc3CCc3ccccc32)s1", "> 100 µM"],
  ["CC(=O)Nc1ccc(/C=C/[N+](=O)[O-])cc1", "10.7 µM"],
  ["COC(=O)C1=C(C)N(NC(N)=O)C2(N)N(NC(N)=O)C(C)=C(C(=O)OC)C12C(=O)OC (stereo unspecified)", "> 10 µM"],
  ["C=C(C)C(=O)O[C@H]1CC2(CO)O[C@@H]2CC/C(COC(C)=O)=C/C2OC(=O)C(=C)[C@@H]21 (stereo partly specified)", "79.6 µM"],
  ["O=C(O)c1cc2ccccc2c(O)c1O", "28.9 µM"],
  ["COC(=O)NC(Nc1ccc(C)cc1)(C(F)(F)F)C(F)(F)F", "> 100 µM"],
  ["CC(CN(CP(=O)([O-])[O-])CP(=O)([O-])[O-])N(CP(=O)([O-])[O-])CP(=O)([O-])[O-].N.N.[Pt+2] (stereo unspecified)", "> 100 µM"],
  ["CC1=C([Se]CC(OC(=O)CC[Se]c2ccccc2)C(=O)NCCCCCC(=O)OCc2ccccc2)C(=O)c2ccccc2C1=O (stereo unspecified)", "4.71 µM"],
  ["O=C(O)C(=Cc1ccnc2ccccc12)C(=O)O", "> 100 µM"],
  ["COc1ccc(OC)c(-c2cn3c(n2)sc2ccccc23)c1", "> 100 µM"],
  ["CCCCN(CCCC)C1=Nc2ccccc2-n2c(nnc2C(=O)OCC)C1", "> 100 µM"],
  ["[Cl][Bi]([O]c1ccccn1)[O]c1ccccn1", "> 100 µM"]
]}
